log10 IC50 values for UniProt:Q9UHD2, compiled from several publications.
Record value = log10 of IC50 given in nM.

Record excerpt, results attached:
q: Requested read-out log10 IC50, target or system UniProt:Q9UHD2, entry `O=C(NC1CCCC1)N1CC=C(c2c[nH]c3ncc(-c4ccc(OCCCN5CCOCC5)cc4)cc23)CC1`
a: 2.60

q: Please state recorded log10 IC50 (tested on UniProt:Q9UHD2) of `CC(=O)Nc1cccc(-c2cnc3[nH]cc(C4=CCN(C(=O)OC(C)(C)C)CC4)c3c2)c1`
a: 2.30

q: Tell me reported log10 IC50 for CCC1CN(C(=O)NC2CCCC2)CC=C1c1c[nH]c2ncc(-c3ccc(CN4CCOCC4)s3)cc12 (stereo not shown) , tested with UniProt:Q9UHD2.
a: 1.85

---
q: Item `Nc1ncc(-c2cnn(CCN3CCOCC3)c2)cc1C(=O)Nc1ccncc1` with UniProt:Q9UHD2 - log10 IC50?
a: 2.87

q: Please provide the recorded log10 IC50 for `CNS(=O)(=O)c1cccc(-c2cnc3[nH]cc(C4=CCN(C(=O)NC5CCCC5)CC4)c3c2)c1` , tested on UniProt:Q9UHD2.
a: 1.48

q: Hi! What's the reported log10 IC50 for N#Cc1cc(-c2ccnc(Nc3cnn(CC4CCOC4)c3)c2)ccc1OC1CCOCC1 (stereo not shown) on UniProt:Q9UHD2?
a: 1.93

q: Request - read-out log10 IC50 | tested on UniProt:Q9UHD2 | compound CC1C=C(c2c[nH]c3ncc(-c4ccc(CN5CCN(C)CC5)s4)cc23)CCN1C(=O)NC1CCCC1 (stereo not shown)
a: 0.64
